molecular target: Lysosomal acid glucosylceramidase (Homo sapiens) (UniProt P04062); experiment: Glucocerebrosidase-p2 (AID 348); settings: purified GBA, blue fluorogenic substrate, 40 min; also: potency is read from the fitted curve at half-maximal effect
Sequence (P04062 whole entry, looked up): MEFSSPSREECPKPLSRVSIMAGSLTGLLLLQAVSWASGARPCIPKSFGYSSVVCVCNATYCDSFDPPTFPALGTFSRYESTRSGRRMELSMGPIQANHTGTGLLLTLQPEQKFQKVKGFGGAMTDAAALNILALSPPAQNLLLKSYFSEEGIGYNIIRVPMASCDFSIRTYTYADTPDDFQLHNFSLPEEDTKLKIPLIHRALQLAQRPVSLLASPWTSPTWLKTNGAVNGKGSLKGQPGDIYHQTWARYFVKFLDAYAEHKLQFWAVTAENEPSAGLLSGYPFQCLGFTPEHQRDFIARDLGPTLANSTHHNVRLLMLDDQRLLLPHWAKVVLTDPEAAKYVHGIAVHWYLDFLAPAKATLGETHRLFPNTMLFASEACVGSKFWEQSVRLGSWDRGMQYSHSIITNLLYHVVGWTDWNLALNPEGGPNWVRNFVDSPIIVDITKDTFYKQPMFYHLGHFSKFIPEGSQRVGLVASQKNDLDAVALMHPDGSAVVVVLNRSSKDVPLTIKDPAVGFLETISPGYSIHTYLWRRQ
Active and inactive are the calls of the source. Rule as the data show it: active = potency below about 10 µM; inactive = the rest.
Form field: Potency (one value per entry).
reported.metric: Potency

- COc1ccccc1CCn1c(=O)c(C)nc2cncnc21: > 11.4 µM (inactive)
- FC(F)(F)c1ccccc1-c1ccc2ncnc(N3CCOCC3)c2c1: > 11.4 µM (inactive)
- CCNc1ncc2nc(-c3ccccc3)c(=O)n(Cc3cccc(OC)c3)c2n1: > 11.4 µM (inactive)
- COc1ccccc1CN1CC2(CCN(S(=O)(=O)c3ccccc3)CC2)C1: > 11.4 µM (inactive)
- COc1cccc(Cn2c(=O)cnc3cnc(Nc4ccccc4)nc32)c1: > 11.4 µM (inactive)
- Cn1cccc1C(=O)N1CCC[C@@]2(CCN(C(=O)Nc3cccc(C#N)c3)C2)C1: > 11.4 µM (inactive)
- COc1ccccc1CNc1ccnc(-c2cccc(C#N)c2)n1: > 11.4 µM (inactive)
- COc1ccc(NC(=O)N2CC[C@@]3(CCCN(C(=O)c4ccncc4)C3)C2)cc1: > 11.4 µM (inactive)
- COc1ncc2nc(-c3cn(C)c4ccccc34)c(=O)n(Cc3ccc(F)cc3)c2n1: > 11.4 µM (inactive)
- CC(C)CN1CCCC2(CCN(C(=O)c3csnn3)CC2)C1: > 11.4 µM (inactive)
- O=C(c1ccncc1)N1CCC2(CCCN(C(c3ccccc3)c3ccccc3)C2)CC1: > 11.4 µM (inactive)
- CS(=O)(=O)N1CCC2(CC1)CN(c1ccccc1)C2: > 11.4 µM (inactive)
- O=c1c(-c2ccccc2)nc2cnc(Oc3cccc(Cl)c3)nc2n1C[C@H]1CCCO1: > 11.4 µM (inactive)
- c1cncc(-c2cncnc2NCc2cccs2)c1: > 11.4 µM (inactive)
- COc1ccc(-c2nc3cnc(Nc4cccc(OC)c4)nc3n(CCC#N)c2=O)cc1: > 11.4 µM (inactive)
- CN(C)Cc1ccccc1-c1cc(N(C)C)ncn1: > 11.4 µM (inactive)
- COCCn1c(=O)c(-c2ccccc2)nc2cnc(Nc3cccc(OC)c3)nc21: > 11.4 µM (inactive)
- Cc1ccccc1-c1cc(NCc2cccnc2)ncn1: > 11.4 µM (inactive)
- O=c1c(CCc2ccccc2)nc2cncnc2n1Cc1ccccc1Cl: > 11.4 µM (inactive)
- Cn1cccc1C(=O)N1CCC2(CCN(Cc3ccccc3)CC2)CC1: > 11.4 µM (inactive)
- COc1cccc(Nc2ncc3nc(C)c(=O)n(CCC#N)c3n2)c1: > 11.4 µM (inactive)
- N#CCCn1c(=O)c(-c2cccs2)nc2cnc(N3CCOCC3)nc21: > 11.4 µM (inactive)
- COc1ccc2[nH]cc(CCNc3nc(-c4ccccc4CN(C)C)nc4ccccc34)c2c1: > 11.4 µM (inactive)
